Entry source: patent US8772499B2

Reported IC50 is given for each of the following compounds.
target: human TRPV3 (Homo sapiens)
Construct: expressed in transfected cells
Sequence (Q8NET8 1-790): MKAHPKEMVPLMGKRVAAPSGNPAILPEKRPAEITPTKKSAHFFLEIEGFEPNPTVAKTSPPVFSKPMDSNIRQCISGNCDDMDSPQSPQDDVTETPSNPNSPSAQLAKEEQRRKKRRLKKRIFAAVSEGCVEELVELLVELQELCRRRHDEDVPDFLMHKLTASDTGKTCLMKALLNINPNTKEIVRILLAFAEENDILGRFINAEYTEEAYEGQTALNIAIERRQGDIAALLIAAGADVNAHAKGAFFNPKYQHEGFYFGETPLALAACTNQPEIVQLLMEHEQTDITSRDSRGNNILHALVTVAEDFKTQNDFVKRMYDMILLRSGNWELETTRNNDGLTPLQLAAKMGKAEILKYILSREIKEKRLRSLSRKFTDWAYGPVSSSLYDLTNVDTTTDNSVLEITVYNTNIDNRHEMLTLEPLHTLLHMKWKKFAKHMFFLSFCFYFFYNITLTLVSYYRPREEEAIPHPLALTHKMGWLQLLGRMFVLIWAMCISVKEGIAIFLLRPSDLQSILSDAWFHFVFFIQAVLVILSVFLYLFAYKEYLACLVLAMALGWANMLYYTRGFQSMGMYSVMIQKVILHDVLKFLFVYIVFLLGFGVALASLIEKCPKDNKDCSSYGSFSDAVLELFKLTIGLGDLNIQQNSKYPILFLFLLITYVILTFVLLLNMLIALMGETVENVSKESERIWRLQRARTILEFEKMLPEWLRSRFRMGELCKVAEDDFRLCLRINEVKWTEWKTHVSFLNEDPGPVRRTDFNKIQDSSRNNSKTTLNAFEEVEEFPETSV
assay.remarks: In vitro antagonism of recombinant human TRPV3 activation (FLIPR Tetra calcium assay)
Type: cell-based
details: HEK293 cells stably expressing human TRPV3; agonist 2-APB at 80 μM; actual measured value shown parenthetically; in most cases average of at least two runs; read-out: IC50
Please reply with the bare figure in nM and do not write the unit itself.

# compound, IC50 (nM)
measured = [
    ("CCN(CC)c1ccc(C2(C(O)c3ccccn3)CCC2)cc1 (centres unmarked) [Example 18]", 740),
    ("N[C@@H]1CCC[C@H]1[C@@H](O)C1(c2ccc(Cl)c(Cl)c2)CCC1 [Example 220]", 650),
    ("OC(c1ccccn1)C1(c2ccc(Cl)c(Cl)c2)CCOCC1 (centres unmarked) [Example 59]", 1790),
    ("OC(c1ccccn1)C1(c2cccc(OC(F)(F)F)c2)CCC1 (centres unmarked) [Example 11]", 400),
]

Kindly review the next compound as well.
Consider the compound CC1(O)CC(c2cncc(C(F)(F)F)c2)(C(O)c2ccccn2)C1 (single isomer, unassigned) [Example 308] and give its measured IC50. 1000
